system: PC-12; assay: Cytotoxicity against rat PC12 cells assessed as decrease in cell viability at 30 uM after 24 hrs by MTT assay; format: cell-based; conditions: pc-12, 24 h
readout label: Activity

O=C(/C=C/c1ccc(O)cc1)NCCC1CCN(Cc2ccccc2)CC1    Toxic
O=C(/C=C/c1ccccc1)NCCC1CCN(Cc2ccccc2)CC1    Toxic
CC(C)(C)c1cc(/C=C/C(=O)NCCC2CCN(Cc3ccccc3F)CC2)cc(C(C)(C)C)c1O    Toxic
CC(C)(C)c1cc(/C=C/C(=O)NCCC2CCN(Cc3ccccc3)CC2)cc(C(C)(C)C)c1O    Toxic

###

target: Amine oxidase [flavin-containing] B (Homo sapiens); assay: Inhibition of human MAO-B using p-tyramine as substrate incubated for 15 mins followed by substrate addition measured for 20 mins by fluorescence assay
Sequence (P27338 whole entry): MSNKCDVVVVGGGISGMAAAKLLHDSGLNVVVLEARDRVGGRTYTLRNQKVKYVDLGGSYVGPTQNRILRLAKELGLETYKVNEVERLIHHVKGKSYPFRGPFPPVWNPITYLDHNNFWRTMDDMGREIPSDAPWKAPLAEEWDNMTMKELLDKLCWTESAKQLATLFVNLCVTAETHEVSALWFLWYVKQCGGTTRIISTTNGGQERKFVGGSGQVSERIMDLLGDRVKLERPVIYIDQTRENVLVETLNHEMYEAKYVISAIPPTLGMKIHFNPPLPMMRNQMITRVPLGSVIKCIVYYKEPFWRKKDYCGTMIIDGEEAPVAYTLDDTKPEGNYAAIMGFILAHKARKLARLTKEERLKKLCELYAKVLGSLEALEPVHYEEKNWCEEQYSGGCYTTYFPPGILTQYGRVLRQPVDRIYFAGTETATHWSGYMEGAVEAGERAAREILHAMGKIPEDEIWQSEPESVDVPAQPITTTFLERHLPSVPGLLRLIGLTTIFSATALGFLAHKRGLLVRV
readout label: IC50 (µM)
Answers are plain numbers, in µM.

Some molecules with known IC50 results, for comparison:
CC(C)(C)c1cc(C(=O)NCCC2CCN(Cc3ccccc3)CC2)cc(C(C)(C)C)c1O    89.2
CC(C)(C)c1cc(/C=C/C(=O)NCCC2CCN(Cc3ccc(C#N)cc3)CC2)cc(C(C)(C)C)c1O    13.9
CC(C)(C)c1cc(/C=C/C(=O)NCCC2CCN(Cc3ccc(F)cc3F)CC2)cc(C(C)(C)C)c1O    12.5
COc1ccc(CN2CCC(CCNC(=O)/C=C/c3cc(C(C)(C)C)c(O)c(C(C)(C)C)c3)CC2)cc1    6.7
CC(C)(C)c1cc(/C=C/C(=O)NCCC2CCN(Cc3ccc(F)c(F)c3)CC2)cc(C(C)(C)C)c1O    9.3

For every item in the list below, what is its measured IC50?
1. CC(C)(C)c1cc(CCC(=O)NCC2CCN(Cc3ccccc3)CC2)cc(C(C)(C)C)c1O
2. CC(C)(C)c1cc(/C=C/C(=O)NCCC2CCN(Cc3cccc([N+](=O)[O-])c3)CC2)cc(C(C)(C)C)c1O
3. CC(C)(C)c1cc(/C=C/C(=O)NCCC2CCN(Cc3cccc(F)c3)CC2)cc(C(C)(C)C)c1O

1: 89.1; 2: 12.5; 3: 6.5
